System: NCI-H2085
protocolNotes: relative viability (nuclei count vs DMSO), 5 days (fraction); higher = more cells survive
settings: first compound 0.01 µM
For each entry below, report its relative viability value.
No unit in the answer, only the number.

What value of relative viability has been reported for the following molecule? O=c1cc(N2CCOCC2)oc2c(-c3cccc4c3sc3ccccc34)cccc12 + CC(C)C[C@H](NC(=O)[C@H](Cc1ccccc1)NC(=O)c1cnccn1)B(O)O [Bortezomib] (partner 0.002 µM) 0.995

What value of relative viability has been reported for the following molecule? CCN(CC)CCCCNc1ncc2cc(-c3cc(OC)cc(OC)c3)c(NC(=O)NC(C)(C)C)nc2n1 + NC(=O)Nc1cc(-c2cccc(F)c2)sc1C(=O)N[C@H]1CCCNC1 [AZD7762] (partner 0.2 µM) 0.991

What value of relative viability has been reported for the following molecule? CCN(CC)CCCCNc1ncc2cc(-c3cc(OC)cc(OC)c3)c(NC(=O)NC(C)(C)C)nc2n1 + C[C@]1(O)C[C@@H](c2nc(-c3ccc4ccc(-c5ccccc5)nc4c3)c3c(N)nccn32)C1 [Linsitinib] (partner 1 µM) 0.977

What value of relative viability has been reported for the following molecule? O=c1cc(N2CCOCC2)oc2c(-c3cccc4c3sc3ccccc34)cccc12 + Nc1ncn([C@H]2C[C@H](O)[C@@H](CO)O2)c(=O)n1 [Decitabine] (partner 2 µM) 0.591

What value of relative viability has been reported for the following molecule? CCN(CC)CCCCNc1ncc2cc(-c3cc(OC)cc(OC)c3)c(NC(=O)NC(C)(C)C)nc2n1 + CS(=O)(=O)CCNCc1ccc(-c2ccc3ncnc(Nc4ccc(OCc5cccc(F)c5)c(Cl)c4)c3c2)o1 [Lapatinib] (partner 2 µM) 0.791

What value of relative viability has been reported for the following molecule? CCN(CC)CCCCNc1ncc2cc(-c3cc(OC)cc(OC)c3)c(NC(=O)NC(C)(C)C)nc2n1 + CC(=O)Nc1cccc(-n2c(=O)n(C3CC3)c(=O)c3c(Nc4ccc(I)cc4F)n(C)c(=O)c(C)c32)c1 [Trametinib] (partner 0.02 µM) 0.521

What value of relative viability has been reported for the following molecule? CCN(CC)CCCCNc1ncc2cc(-c3cc(OC)cc(OC)c3)c(NC(=O)NC(C)(C)C)nc2n1 + Cc1nc(NC(=O)N2CCC[C@H]2C(N)=O)sc1-c1ccnc(C(C)(C)C(F)(F)F)c1 [Alpelisib] (partner 2 µM) 1.04

What value of relative viability has been reported for the following molecule? O=c1cc(N2CCOCC2)oc2c(-c3cccc4c3sc3ccccc34)cccc12 + CC(=O)Nc1cccc(-n2c(=O)n(C3CC3)c(=O)c3c(Nc4ccc(I)cc4F)n(C)c(=O)c(C)c32)c1 [Trametinib] (partner 0.02 µM) 0.515

* * *

Tested on: LU99A
protocolNotes: relative viability (nuclei count vs DMSO), 5 days (fraction); higher = more cells survive
settings: first compound 8 µM
assayEndpoint: relative viability
No unit in the answer, only the number.

What value of relative viability has been reported for the following compound? O=c1cc(-c2cccc3c2Sc2ccccc2S3)oc(N2CCOCC2)c1 + CC(C)C[C@H](NC(=O)[C@H](Cc1ccccc1)NC(=O)c1cnccn1)B(O)O [Bortezomib] (partner 0.002 µM) 1.3

What value of relative viability has been reported for the following compound? O=c1cc(-c2cccc3c2Sc2ccccc2S3)oc(N2CCOCC2)c1 + CC(=O)Nc1cccc(-n2c(=O)n(C3CC3)c(=O)c3c(Nc4ccc(I)cc4F)n(C)c(=O)c(C)c32)c1 [Trametinib] (partner 0.02 µM) 0.52

What value of relative viability has been reported for the following compound? O=c1cc(-c2cccc3c2Sc2ccccc2S3)oc(N2CCOCC2)c1 + C[C@@H](Oc1cc(-c2cnn(C3CCNCC3)c2)cnc1N)c1c(Cl)ccc(F)c1Cl [Crizotinib] (partner 1 µM) 0.701

What value of relative viability has been reported for the following compound? O=c1cc(-c2cccc3c2Sc2ccccc2S3)oc(N2CCOCC2)c1 + Cc1nc(NC(=O)N2CCC[C@H]2C(N)=O)sc1-c1ccnc(C(C)(C)C(F)(F)F)c1 [Alpelisib] (partner 2 µM) 0.575

What value of relative viability has been reported for the following compound? O=c1cc(-c2cccc3c2Sc2ccccc2S3)oc(N2CCOCC2)c1 + Cc1nc(Nc2ncc(C(=O)Nc3c(C)cccc3Cl)s2)cc(N2CCN(CCO)CC2)n1 [Dasatinib] (partner 0.075 µM) 0.631

* * *

Tested on: NCI-H2170
protocolNotes: relative viability (nuclei count vs DMSO), 5 days (fraction); higher = more cells survive
settings: first compound 2.53 µM
assayEndpoint: relative viability
No unit in the answer, only the number.

What value of relative viability has been reported for the following compound? COc1nc(C)cnc1NS(=O)(=O)c1cccnc1-c1ccc(-c2nnco2)cc1 [Zibotentan] + Cc1nc(Nc2ncc(C(=O)Nc3c(C)cccc3Cl)s2)cc(N2CCN(CCO)CC2)n1 [Dasatinib] (partner 0.075 µM) 0.469

What value of relative viability has been reported for the following compound? COc1nc(C)cnc1NS(=O)(=O)c1cccnc1-c1ccc(-c2nnco2)cc1 [Zibotentan] + CC1(C)CCC(c2ccc(Cl)cc2)=C(CN2CCN(c3ccc(C(=O)NS(=O)(=O)c4ccc(N[C@H](CCN5CCOCC5)CSc5ccccc5)c(S(=O)(=O)C(F)(F)F)c4)cc3)CC2)C1 [Navitoclax] (partner 0.5 µM) 0.651

* * *

Test system: NCI-H838
protocolNotes: relative viability (nuclei count vs DMSO), 5 days (fraction); higher = more cells survive
settings: first compound 0.03162 µM
assayEndpoint: relative viability
No unit in the answer, only the number.

What value of relative viability has been reported for the following compound? CCN(CC)CCCCNc1ncc2cc(-c3cc(OC)cc(OC)c3)c(NC(=O)NC(C)(C)C)nc2n1 + CC1(C)CCC(c2ccc(Cl)cc2)=C(CN2CCN(c3ccc(C(=O)NS(=O)(=O)c4ccc(N[C@H](CCN5CCOCC5)CSc5ccccc5)c(S(=O)(=O)C(F)(F)F)c4)cc3)CC2)C1 [Navitoclax] (partner 0.5 µM) 1.12

What value of relative viability has been reported for the following compound? O=c1cc(N2CCOCC2)oc2c(-c3cccc4c3sc3ccccc34)cccc12 + Nc1ncn([C@H]2C[C@H](O)[C@@H](CO)O2)c(=O)n1 [Decitabine] (partner 2 µM) 0.49

What value of relative viability has been reported for the following compound? O=c1cc(N2CCOCC2)oc2c(-c3cccc4c3sc3ccccc34)cccc12 + O=C(CCCCCCC(=O)Nc1ccccc1)NO [Vorinostat] (partner 1 µM) 0.716

What value of relative viability has been reported for the following compound? O=c1cc(N2CCOCC2)oc2c(-c3cccc4c3sc3ccccc34)cccc12 + CC(=O)c1c(C)c2cnc(Nc3ccc(N4CCNCC4)cn3)nc2n(C2CCCC2)c1=O [Palbociclib] (partner 0.5 µM) 0.182

* * *

Test system: NCI-H727
protocolNotes: relative viability (nuclei count vs DMSO), 5 days (fraction); higher = more cells survive
settings: first compound 0.08 µM
For each entry below, report its relative viability value.
No unit in the answer, only the number.

What value of relative viability has been reported for the following compound? COc1nc(C)cnc1NS(=O)(=O)c1cccnc1-c1ccc(-c2nnco2)cc1 [Zibotentan] + C[C@@H](Oc1cc(-c2cnn(C3CCNCC3)c2)cnc1N)c1c(Cl)ccc(F)c1Cl [Crizotinib] (partner 1 µM) 0.985

What value of relative viability has been reported for the following compound? O=c1cc(-c2cccc3c2Sc2ccccc2S3)oc(N2CCOCC2)c1 + CC(=O)c1c(C)c2cnc(Nc3ccc(N4CCNCC4)cn3)nc2n(C2CCCC2)c1=O [Palbociclib] (partner 0.5 µM) 0.613

What value of relative viability has been reported for the following compound? O=c1cc(-c2cccc3c2Sc2ccccc2S3)oc(N2CCOCC2)c1 + COc1cc2c(Oc3ccc(NC(=O)C4(C(=O)Nc5ccc(F)cc5)CC4)cc3F)ccnc2cc1OCCCN1CCOCC1 [Foretinib] (partner 0.25 µM) 0.552

What value of relative viability has been reported for the following compound? COc1nc(C)cnc1NS(=O)(=O)c1cccnc1-c1ccc(-c2nnco2)cc1 [Zibotentan] + CC(=O)Nc1cccc(-n2c(=O)n(C3CC3)c(=O)c3c(Nc4ccc(I)cc4F)n(C)c(=O)c(C)c32)c1 [Trametinib] (partner 0.02 µM) 0.371

What value of relative viability has been reported for the following compound? COc1nc(C)cnc1NS(=O)(=O)c1cccnc1-c1ccc(-c2nnco2)cc1 [Zibotentan] + O=C(CCCCCCC(=O)Nc1ccccc1)NO [Vorinostat] (partner 1 µM) 1.19

What value of relative viability has been reported for the following compound? COc1nc(C)cnc1NS(=O)(=O)c1cccnc1-c1ccc(-c2nnco2)cc1 [Zibotentan] + Cc1nc(NC(=O)N2CCC[C@H]2C(N)=O)sc1-c1ccnc(C(C)(C)C(F)(F)F)c1 [Alpelisib] (partner 2 µM) 0.483

What value of relative viability has been reported for the following compound? O=c1cc(-c2cccc3c2Sc2ccccc2S3)oc(N2CCOCC2)c1 + COc1cccc2cc(-c3nc([C@H]4CC[C@H](C(=O)O)CC4)n4ncnc(N)c34)[nH]c12 [OSI-027] (partner 0.5 µM) 0.631
